B1: TPR 5TU (parent)
chain: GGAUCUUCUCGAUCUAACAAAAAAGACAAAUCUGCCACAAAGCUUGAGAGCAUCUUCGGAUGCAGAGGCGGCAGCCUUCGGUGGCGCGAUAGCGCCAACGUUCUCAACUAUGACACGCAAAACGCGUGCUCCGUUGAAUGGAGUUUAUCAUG

variants of: B1; assay: polymerase ribozyme fitness, log enrichment relative to wild type (log ratio); higher = more active; in vitro selection for triplet polymerase activity
This sample holds only a part of the variants without activity.
metricName: polymerase ribozyme fitness (log ratio)
Give bare numbers.

Worked cases, answers included:
>  <mutationLabel>
U13G A16U C85U U145G

>  <endpointResult>
-3.16

$$$$
>  <mutationLabel>
U55A G58U G84A C103U A120C

>  <endpointResult>
-0.0961

$$$$
>  <mutationLabel>
C38G C54G U82C U146A

>  <endpointResult>
-1.88

$$$$

List the reported polymerase ribozyme fitness (log ratio) of each variant below.
1. U4C C85U U101G A147C
2. C54U U56C A73U
3. U61C U82C C116U U134C
4. U56C C132U

Result string:
-0.704
-1.06
-2.24
-1.47

List the reported polymerase ribozyme fitness (log ratio) of each variant below.
1. G71A U104C
2. C35A U56C U82A
3. U7G U82A G117U

Result string:
1: -3.42; 2: -3.49; 3: -3.65

List the reported polymerase ribozyme fitness (log ratio) of each variant below.
1. U56A C85U G128U
2. A37G A60C
3. U56A A142U

Result string:
-2.89
-3.15
-0.643
